conditions: human
pIC50: −log10 of the molar value.
Attribute: pIC50

{"compound": "C=CC(=O)Nc1cccc(Nc2nc(Nc3ccc(Cn4ccnc4)cc3)ncc2F)c1", "inequality-sign": "=", "pIC50": 6.96}
{"compound": "C=CC(=O)Nc1cccc(Nc2nc(Nc3ccc(OCCCn4ccnc4)cc3)ncc2[N+](=O)[O-])c1", "inequality-sign": "<", "pIC50": 7.61}
{"compound": "C=CC(=O)Nc1cccc(Nc2nc(Nc3ccc(-n4ccnc4)cc3)ncc2[N+](=O)[O-])c1", "inequality-sign": "<", "pIC50": 7.99}
{"compound": "C=CC(=O)Nc1cccc(Nc2nc(Nc3ccc(N4CCN(C(C)=O)CC4)cc3OC)ncc2C(F)(F)F)c1 [ROCILETINIB]", "inequality-sign": "=", "pIC50": 7.67}
{"compound": "C=CC(=O)Nc1cccc(Nc2nc(Nc3ccc(NC(=O)Cn4ccnc4)cc3)ncc2[N+](=O)[O-])c1", "inequality-sign": "<", "pIC50": 8.07}

---

Listed here are compounds together with their documented pIC50.
conditions: human
pIC50: −log10 of the molar value.

{"smiles-input": "C=CC(=O)Nc1cccc(Nc2nc(Nc3ccc(OCCn4ccnc4)cc3)ncc2Cl)c1", "pIC50": "< 8.03"}
{"smiles-input": "C=CC(=O)Nc1cccc(Nc2nc(Nc3ccc(OCCn4cncn4)cc3)ncc2Cl)c1", "pIC50": "< 8.01"}
{"smiles-input": "C=CC(=O)Nc1cccc(Nc2nc(Nc3ccc(OCCn4ccnc4)cc3)ncc2F)c1", "pIC50": "< 6.96"}

---

assay: cells; type: functional, cell-based; settings: Homo sapiens, NCI-H1975, 48 h
pIC50: −log10 of the molar value.
Short version: pIC50 at least 6 is t, less is f.

{"smiles-input": "C=CC(=O)Nc1cccc(Nc2nc(Nc3ccc(N4CCN(C(C)=O)CC4)cc3OC)ncc2C(F)(F)F)c1", "label": "t"}
{"smiles-input": "C=CC(=O)Nc1cccc(Nc2nc(Nc3ccc(-n4ccnc4)cc3)ncc2[N+](=O)[O-])c1", "label": "f"}
{"smiles-input": "C=CC(=O)Nc1cccc(Nc2nc(Nc3ccc(OCCn4cncn4)cc3)ncc2Cl)c1", "label": "f"}
{"smiles-input": "C=CC(=O)Nc1cccc(Nc2nc(Nc3ccc(Cn4ccnc4)cc3)ncc2F)c1", "label": "f"}
{"smiles-input": "C=CC(=O)Nc1cccc(Nc2nc(Nc3ccc(OCCCn4ccnc4)cc3)ncc2[N+](=O)[O-])c1", "label": "f"}

---

Quick note: these are IC50 numbers for system: Epidermal growth factor receptor (Homo sapiens)
Sequence (P00533 whole entry): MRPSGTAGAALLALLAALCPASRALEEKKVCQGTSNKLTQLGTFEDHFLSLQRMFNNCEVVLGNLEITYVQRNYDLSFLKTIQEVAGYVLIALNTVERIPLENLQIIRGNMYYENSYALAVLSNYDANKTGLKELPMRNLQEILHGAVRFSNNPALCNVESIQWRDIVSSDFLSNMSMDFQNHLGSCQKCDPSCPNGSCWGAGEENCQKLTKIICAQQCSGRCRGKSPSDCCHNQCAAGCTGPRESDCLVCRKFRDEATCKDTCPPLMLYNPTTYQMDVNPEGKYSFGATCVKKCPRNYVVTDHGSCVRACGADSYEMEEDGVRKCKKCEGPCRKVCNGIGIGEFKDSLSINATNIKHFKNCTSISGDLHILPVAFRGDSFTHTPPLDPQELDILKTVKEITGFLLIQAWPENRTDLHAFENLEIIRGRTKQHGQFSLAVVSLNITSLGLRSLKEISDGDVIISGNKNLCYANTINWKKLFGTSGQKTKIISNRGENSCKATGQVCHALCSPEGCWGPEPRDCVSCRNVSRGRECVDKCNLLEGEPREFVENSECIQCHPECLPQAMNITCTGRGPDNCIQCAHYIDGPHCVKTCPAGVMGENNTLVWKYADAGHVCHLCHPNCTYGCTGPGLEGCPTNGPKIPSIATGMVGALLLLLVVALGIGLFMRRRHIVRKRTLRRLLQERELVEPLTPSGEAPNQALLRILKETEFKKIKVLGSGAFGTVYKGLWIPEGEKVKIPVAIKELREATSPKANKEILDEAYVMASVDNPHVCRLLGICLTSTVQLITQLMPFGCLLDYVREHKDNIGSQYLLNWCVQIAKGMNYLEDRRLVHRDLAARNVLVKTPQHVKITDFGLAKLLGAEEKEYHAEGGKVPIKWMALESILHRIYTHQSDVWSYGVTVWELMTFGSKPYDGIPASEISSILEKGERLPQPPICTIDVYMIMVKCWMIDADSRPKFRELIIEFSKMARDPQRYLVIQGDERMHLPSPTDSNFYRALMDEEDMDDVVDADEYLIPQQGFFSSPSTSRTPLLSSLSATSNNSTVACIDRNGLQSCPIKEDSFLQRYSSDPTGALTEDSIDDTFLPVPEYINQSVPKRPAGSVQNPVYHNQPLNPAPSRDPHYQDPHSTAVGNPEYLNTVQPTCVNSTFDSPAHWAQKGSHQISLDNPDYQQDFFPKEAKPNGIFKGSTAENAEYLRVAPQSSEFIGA
recorded-metric: IC50

{"smiles-input": "C=CC(=O)Nc1cccc(Nc2nc(Nc3ccc(OCCn4ccnc4)cc3)ncc2F)c1", "value": "> 1000 nM"}
{"smiles-input": "C=CC(=O)Nc1cccc(Nc2nc(Nc3ccc(OCCn4cncn4)cc3)ncc2Cl)c1", "value": "> 1000 nM"}
{"smiles-input": "C=CC(=O)Nc1cccc(Nc2nc(Nc3ccc(OCCn4ccnc4)cc3)ncc2Cl)c1", "value": "> 1000 nM"}
{"smiles-input": "C=CC(=O)Nc1cccc(Nc2nc(Nc3ccc(-n4ccnc4)cc3)ncc2[N+](=O)[O-])c1", "value": "> 1000 nM"}

Each recorded value in this set is attributed to ChEMBL document CHEMBL3860065.
